- PROTOCOL_TEXT: protein stability index of a GFP-peptide fusion (yeast GPS) (PSI 1-4); higher = more stable; sorted into four equal gates, so the index is relative within each strain
- SETTINGS: pdr5∆
OBSERVED_PROPERTY: protein stability index

> print(dat)
                      polymer.sequence  observed.value
 1           IIDEIITQMRVNDEEEH [RPC82]            2.54
 2  YDVLHDVFTINPHQKDQ [YML103C/NUP188]            2.15
 3           DSKKIKVDSPDDPFMTK [GAL11]            2.57
 4            IDPSVTMMTVEEKPDVT [RPT1]            2.58
 5  SIVLLLLSQFGIKVLPE [YML103C/NUP188]            1.28
 6            VQDALLTNQLYKNHELL [SNF2]             3.1
 7            EDITEPKPDKPSGRTRG [ESC2]            2.96
 8            SVLSSKPGSKPEKTSTE [SIR3]             2.7
 9            FLVRYACEPTAEKFVPI [SIR3]             2.9
10            LGKTIQTISLLTYLYEM [SNF2]             2.5
11          RKKRTRRLKRKRRKVRA [RPL41A]            3.21
12            NRYAFSQPTNSTTTSLH [SMC4]            2.33
13   VASRHPSESEHPIRVLM [YDL116W/NUP84]               3
14   IIPQDILDCVVTNSMRQ [YJR042W/NUP85]            3.15
15            YIHLAYSRSVDKEWVFA [SSN2]             1.5
16            KLEAEEIPSEDQNEFLL [FAS2]            1.75
17            SLGIAQPKGVILYGPPG [RPT6]            2.89
18            VDRSKYNIELPLPPRID [RPT1]            3.58
19            NNYDDFMLSDDEGMESI [RRI2]            3.71
20           QQQNASSKLYQMQQQQQ [GAL11]            1.66
21           NLNAFVDFSKYNTNFNL [SRP72]            2.81
22            LSSGENRYAFSQPTNST [SMC4]            2.96
23            LITVMEKSPDPTIRSNA [YCS4]            2.48
24            TLKIHLKKFLQEKMDPN [IRR1]            3.01
25           NIALVSKLRNNIRSQLL [SRP54]            2.56
26            LMRTFLYTLAQETEGTN [SIR3]            2.63
27    GKAATAKETHTKPSETP [YOR098C/NUP1]            2.84
28            KLRETLVKIDDLSANQR [SMC1]            3.29
29            ICLYSSFQKNSLHNTEK [AAR2]            2.24
30            YLNGTLIGSIRFPTKFV [RET1]             1.6
31            LELLNQLDGFSSDDRVK [RPT5]            3.15
32            LSNFNADINLEESIRES [SIR3]            2.95
33            EQSELLKAQITSLKCLV [SNF2]            1.83
34            VEAQSHRLTLEDPVTVE [PRE6]            3.88
35           YDRATLTQLLSMMSDGI [RPO31]            2.44
36            LMISPKDEETTEKARLI [RRI2]            3.27
37            LMMVEKVPDSTYDMVGG [RPT6]            2.98
38            TRDVEPENLQVTSEKYP [BRR2]            3.35
39           ADVHFLDCDGGFIDASC [RRP45]             2.9
40    RIMEKSVILSVISMFVL [YML031W/NDC1]            1.44
41            RYFFYLSKINAIQLDYS [RPN3]            1.23
42          RFNVVKVSAAAGKANKQ [RPS11A]            1.38
43            HLAVVCVDDNSKISFID [SSN2]            2.84
44            FVSRPDRTMLAPMDFAI [FAS1]            2.82
45           YINVNPQEETITFLIEK [ECM29]            2.96
46           ETANVASLNLLQLAPGA [RPL4A]            3.02
47           VHSSSPSTSSNMDVGNP [GAL11]            2.75
48   SLWRRTVYSLSQQAGLD [YDL116W/NUP84]            2.39
49            SGLPTCDYYNTFLLNNK [RPN2]            2.96
50            ISKQKSKLDYIFKDKEK [SMC1]            2.71
51            HKKIKVAQPDSLRETNT [SIR2]            3.25
52    PFKFGKTSEKSENHTES [YOR098C/NUP1]            3.05
53            YTKKHLSSHSSTNSNSK [RPN4]            3.11
54            QNPENLLSEKILQYFEK [SIR3]            2.81
55  LFLIIQCYKIYDLVILK [YMR129W/POM152]             1.2
56   QKSVSLLSSESNIPTLI [YDL116W/NUP84]            2.69
57            VGQAGRPKKITGWITQS [RPN1]            2.27
58            ELMDRTGLKLYSRITLI [RPP1]            2.66
59   SLFSKIKTFFTQKDSAR [YAR002W/NUP60]            2.84
